The reader will find reported pIC50 values listed item by item below.
- EXPERIMENTAL_SYSTEM: human plasma kallikrein (Homo sapiens)
- Sequence (P03952 391-638 limits assumed): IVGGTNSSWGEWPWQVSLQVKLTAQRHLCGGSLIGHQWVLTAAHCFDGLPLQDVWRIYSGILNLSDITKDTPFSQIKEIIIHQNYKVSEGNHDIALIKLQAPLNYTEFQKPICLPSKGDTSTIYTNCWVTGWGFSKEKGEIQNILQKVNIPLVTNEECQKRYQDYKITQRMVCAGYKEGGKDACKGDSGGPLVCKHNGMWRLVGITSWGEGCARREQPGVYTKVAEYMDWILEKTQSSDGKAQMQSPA
- Sequence (P03952 20-390 partner limits assumed): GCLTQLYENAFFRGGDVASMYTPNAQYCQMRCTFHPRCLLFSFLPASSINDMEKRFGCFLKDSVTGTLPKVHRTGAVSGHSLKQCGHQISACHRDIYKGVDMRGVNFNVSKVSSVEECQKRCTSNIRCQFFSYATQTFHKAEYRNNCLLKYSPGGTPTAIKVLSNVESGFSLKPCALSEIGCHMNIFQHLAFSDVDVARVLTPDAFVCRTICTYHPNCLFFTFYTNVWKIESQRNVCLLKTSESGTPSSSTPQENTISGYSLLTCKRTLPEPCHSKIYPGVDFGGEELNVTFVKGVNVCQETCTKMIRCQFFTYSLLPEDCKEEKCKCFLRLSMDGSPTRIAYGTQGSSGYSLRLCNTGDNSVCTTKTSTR
- PROCEDURE_DETAILS: Determination of the plasma kallikrein activity (fluorogenic peptide substrate, AMC cleavage)
- TEST_PARAMETERS: plasma kallikrein from Kordia 0.6 nM; substrate H-Pro-Phe-Arg-AMC 10 μM; 30 min at 22° C.; in some cases averages from multiple determinations
pIC50: −log10 of the molar value.
MEASUREMENT_NAME: pIC50

>  <MOLECULE>
COc1cn(C(C[C@H](C)OC)C(=O)Nc2ccc3nn(C)cc3c2)c(=O)cc1-c1cc(Cl)ccc1OCC(F)(F)F (mixture of isomers)

>  <MEASUREMENT_NAME>
pIC50

>  <REPORTED_VALUE>
7.14

$$$$
>  <MOLECULE>
COc1cn(C(CCOC(C)(C)C)C(=O)Nc2ccc3nn(C)cc3c2)c(=O)cc1-c1cc(Cl)ccc1OCC(F)F (racemic)

>  <MEASUREMENT_NAME>
pIC50

>  <REPORTED_VALUE>
6.92

$$$$
>  <MOLECULE>
COc1cn(C(CCOC(C)C)C(=O)Nc2ccc3nn(C)cc3c2)c(=O)cc1-c1cc(Cl)ccc1OCC(F)(F)F (racemic)

>  <MEASUREMENT_NAME>
pIC50

>  <REPORTED_VALUE>
7.25

$$$$
>  <MOLECULE>
COc1cn(C(CCOC(C)(C)C)C(=O)Nc2ccc(C(N)=O)c(F)c2)c(=O)cc1-c1cc(Cl)ccc1OCC(F)(F)F (racemic)

>  <MEASUREMENT_NAME>
pIC50

>  <REPORTED_VALUE>
7.11

$$$$
>  <MOLECULE>
COc1cn(C(CC2COCCO2)C(=O)Nc2ccc(C(N)=O)nc2)c(=O)cc1-c1cc(Cl)ccc1OCCF (stereo not drawn)

>  <MEASUREMENT_NAME>
pIC50

>  <REPORTED_VALUE>
6.55

$$$$
>  <MOLECULE>
COc1cn(C(CCOC(C)(C)C)C(=O)Nc2ccc(C(N)=O)nc2)c(=O)cc1-c1cc(Cl)ccc1OCC(F)F (racemic)

>  <MEASUREMENT_NAME>
pIC50

>  <REPORTED_VALUE>
7.02

$$$$
